targetOrSystem: T1, rat IL-17A (rat, UniProt Q61453 18-150, limits assumed)
T1 construct: Purified recombinant protein in SPR
T1 sequence (looked up): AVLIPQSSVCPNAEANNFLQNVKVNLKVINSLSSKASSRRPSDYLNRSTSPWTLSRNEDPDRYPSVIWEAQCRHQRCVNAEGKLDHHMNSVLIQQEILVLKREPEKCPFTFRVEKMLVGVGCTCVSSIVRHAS
experimentDescription: SPR (Biacore 3000), antibody captured by anti-Fc, antigen in solution;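 also: purified recombinant IL-17 antigens flowed over captured antibodies in HBS-EP buffer, global Langmuir one-to-one fit of association and dissociation phases, KD derived from koff over kon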
# maps each entry to its koff
Write it as a number; the unit s⁻¹ goes unstated.

// below: answered binders
- binder: "IL17-h5C5.15 (antibody, V domains shown, IgG; constant regions not specified; also called h5C5.15 (VH.1b-Vk.3a)) VH: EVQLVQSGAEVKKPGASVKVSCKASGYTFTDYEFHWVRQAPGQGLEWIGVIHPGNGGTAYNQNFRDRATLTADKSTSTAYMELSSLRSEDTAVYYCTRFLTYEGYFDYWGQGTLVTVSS VL: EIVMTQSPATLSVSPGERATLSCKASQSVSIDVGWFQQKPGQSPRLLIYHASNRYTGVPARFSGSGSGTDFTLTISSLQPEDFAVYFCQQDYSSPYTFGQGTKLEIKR"
  valueMeasured: 0.0036
- binder: "IL17-h5C5.9 (antibody, V domains shown, IgG; constant regions not specified; also called h5C5.9 (VH.1b-Vk.1a)) VH: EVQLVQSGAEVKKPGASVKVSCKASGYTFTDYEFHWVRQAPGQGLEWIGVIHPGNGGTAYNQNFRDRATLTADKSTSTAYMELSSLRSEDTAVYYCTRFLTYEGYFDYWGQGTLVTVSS VL: DIQMTQSPSSLSASVGDRVTITCKASQSVSIDVGWFQQKPGKSPKLLIYHASNRYTGVPSRFSGSGSGTDFTFTISSLQPEDFATYFCQQDYSSPYTFGQGTKLEIKR"
  valueMeasured: 0.00958

In the following, a different binder is considered.
Lookup result for IL17-h5C5.18 (antibody, V domains shown, IgG; constant regions not specified; also called h5C5.18 (VH.1b-Vk.1c)) VH: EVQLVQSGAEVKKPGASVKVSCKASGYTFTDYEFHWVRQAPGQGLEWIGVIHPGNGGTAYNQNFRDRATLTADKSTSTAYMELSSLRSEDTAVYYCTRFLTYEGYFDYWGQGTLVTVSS VL: NIVMTQSPSSLSASVGDRVTITCKASQSVSIDVGWFQQKPGKSPKLLIYHASNRYTGVPSRFSGSGSGTDFTFTISSLQPEDFATYFCQQDYSSPYTFGQGTKLEIKR ; measured koff: 0.00421
